# TESTED_ON: Human ADA (Homo sapiens, UniProt P00813)
# Sequence (P00813 whole entry): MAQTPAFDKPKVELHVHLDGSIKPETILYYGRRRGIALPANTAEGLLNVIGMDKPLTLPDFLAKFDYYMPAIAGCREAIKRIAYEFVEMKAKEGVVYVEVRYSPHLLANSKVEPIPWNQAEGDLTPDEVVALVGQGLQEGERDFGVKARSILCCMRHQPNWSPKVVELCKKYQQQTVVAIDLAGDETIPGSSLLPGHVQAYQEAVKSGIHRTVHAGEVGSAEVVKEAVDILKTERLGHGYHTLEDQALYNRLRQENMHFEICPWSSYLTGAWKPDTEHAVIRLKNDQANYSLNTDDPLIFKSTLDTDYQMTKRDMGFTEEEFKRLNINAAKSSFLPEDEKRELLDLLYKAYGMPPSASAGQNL
# EXPERIMENT_SUMMARY: Adenosine deaminase (ADA) enzyme assay [2], IC50 of Vmax inhibition
OBSERVABLE: IC50 (nM)
Report as a plain number; the unit nM is understood.

Entry under test: C[C@H](O)[C@@H](CCc1cccc2ccccc12)n1cncn1 [Compound A] . Its IC50 was 27

====

# TESTED_ON: Human ADA (Homo sapiens, UniProt P00813)
# EXPERIMENT_SUMMARY: Adenosine deaminase (ADA) enzyme assay [1], Ki by Dixon plot
# RUN_CONDITIONS: 25 mU/ml ADA, varying concentrations of adenosine, 10 mM phosphate buffer saline pH 7.4, room temperature, A265 for 5 minutes
# Protocol: The reaction velocity (V) is measured by a change in absorbance at 265 nm (A265) resulting from the deamination of adenosine. Human ADA was expressed and purified from ADA-deficient bacterial strain. Reaction mixtures in a total volume of 200 μl contained 25 mU/ml of ADA and varying concentrations of adenosine and test compounds in 10 mM phosphate buffer saline (pH 7.4). […] The inhibition constant (Ki) values of test compounds were determined by Dixon plot.
OBSERVABLE: Ki (nM)
Report as a plain number; the unit nM is understood.

Entry under test: NC(=O)c1cn([C@@H](CO)CCn2ccc3ccc(NC(=O)CCCc4ccccc4)cc32)cn1 [Example 6-(2)] . Its Ki was 16

Source listed as patent US6596738B1.
